# credit: BindingDB's records for doi:10.1021/jm020046y

Biological target: P2Y purinoceptor 1 (Meleagris gallopavo, UniProt P49652)
Sequence (P49652 whole entry): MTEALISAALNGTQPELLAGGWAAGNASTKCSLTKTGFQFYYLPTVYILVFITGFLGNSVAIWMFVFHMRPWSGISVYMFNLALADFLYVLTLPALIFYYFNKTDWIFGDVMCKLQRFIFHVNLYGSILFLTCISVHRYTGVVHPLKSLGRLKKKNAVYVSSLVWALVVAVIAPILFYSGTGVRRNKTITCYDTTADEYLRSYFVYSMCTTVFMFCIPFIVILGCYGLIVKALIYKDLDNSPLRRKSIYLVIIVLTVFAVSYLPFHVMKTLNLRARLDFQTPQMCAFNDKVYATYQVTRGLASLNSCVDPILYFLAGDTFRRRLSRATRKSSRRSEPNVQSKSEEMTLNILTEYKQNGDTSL
Assay: Evaluated for agonist activity against phospholipase C coupled P2Y purinoceptor 1 (P2Y1) of turkey erythrocytes
quantity kind: EC50 (nM)
Your answer should be a plain number; it is taken to be in nM.

// query Reported EC50, molecule CCOc1ccc(Nc2ccc([C+](c3ccc(N(CC)Cc4cccc(S(=O)(=O)[O-])c4)cc3C)c3ccc(N(CC)Cc4cccc(S(=O)(=O)O)c4)cc3C)cc2)cc1 [Brilliant Blue] : ____
// result 0.1

----------
Assay: Dissociative constant against P2Y purinoceptor (P2Y) was reported; range 10-214
quantity kind: pKd
API: returns pKd as number; meaning -log10 of concentration in mol/L.

// query Reported pKd, compound `O=S(=O)(O)c1cc(N=C=S)ccc1/C=C/c1ccc(N=C=S)cc1S(=O)(=O)O` : ____
// result 5.00
